Biological target: 6his-GSU1771 (Geobacter sulfurreducens (DL1 wild-type background)) (UniProt Q74CA3)
Sequence: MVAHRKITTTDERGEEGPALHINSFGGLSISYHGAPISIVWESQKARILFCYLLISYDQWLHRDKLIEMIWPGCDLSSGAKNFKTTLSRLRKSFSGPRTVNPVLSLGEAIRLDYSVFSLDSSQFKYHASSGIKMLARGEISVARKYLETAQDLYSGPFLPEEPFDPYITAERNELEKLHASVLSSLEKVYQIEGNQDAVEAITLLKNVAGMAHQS
Assay: EMSA
Conditions: 40 mM HEPES, 8 mM MgCl2, 50 mM KCl, 1 mM DTT, 0.05% NP-40, 0.1 mg/ml BSA, 20 ul, 30 C 30 min, pH not stated; 100 ng of each fragment; 6% native PAGE in 0.5X …
reported property: binding

AGGCTTGCTCGTCTCATGTCGCGCCGCCGTGGGAAAAAGTAGTAACCAGTAGTATATCATTTCGTCACCGTGGTTTCATTGCTTGAGCTTTTTTGCATCCGAAGCGACTCCAGCCTGTGCCCTCCGGCAATAAACCGCTTTTCCCCCGCCGGTGATGGTGGTACTCTCCTCCCATTTCGCGGAGGATGGAGTGCATGGAT (double strand) [gsu3356 promoter]: binds
CGCTGGATCTCCTGAAAGGGTGGGAAATCCTGAAAACAATAAGCAAATGAGAGGATGACTTACGCCAAAAGGGGGGGCTCGGGCCCCCCCTTTTTTTATGTAAATCCGATAAGTTCTATATTTGTATTGACACTCCCGTAACGATGTAGTATTCAGTAGGTAAATTAATCACAGTTAAGGTAAGGGTGTATCGCG (double strand) [gsu1771 promoter]: binds
ACCATCTTCGCATCCCTGTGGAGGATCTCTGCTTTTCCTGCCACGACCGATAGCAGTGACTATTGTGTTGTGGTGGGTGTGTTGTGATGGTGTTGCGGTCATGTTTCTGCTTGTTTTTATTTTTAATTTTACCCATTTTGTGCTAAGAAAATCTAATGGCCCTATACCACTGTAAGCTCGGCTCCTCGGAG (double strand) [pulF promoter]: binds
